EXPERIMENT: in vivo
COND: female, cynomolgus monkey, sc, 5 mg/kg/day, Average Concentration, Retina

| MOL_SMILES | concentration at 29 day (ng/g) |
| --- | --- |
| Cc1cc(O)cc(C)c1C[C@H](NC(=O)[C@H](N)CCCNC(=N)N)C(=O)N[C@@H](CCCCN)c1nc(Cc2ccccc2)no1.Cl.Cl.Cl | 20100 |

---

EXPERIMENT: in vivo
COND: male, cynomolgus monkey, sc, 15 mg/kg/day, Average Concentration, ICB (iris/ciliary body)
Protocol: Male and female cynomolgus monkeys were divided into four groups (Groups 1 to 4). Groups 1 and 4 consisted of five males and five females each and Groups 2 and 3 consisted of three males and three females each. Animals were dosed via SC injection once daily for 28 consecutive days. […] At termination, gross observations and organ weights were recorded, and eye/optic nerve tissue samples were collected for microscopic evaluation and biodistribution assays. […]

| MOL_SMILES | RESULT_UNITS | concentration at 29 day |
| --- | --- | --- |
| Cc1cc(O)cc(C)c1C[C@H](NC(=O)[C@H](N)CCCNC(=N)N)C(=O)N[C@@H](CCCCN)c1nc(Cc2ccccc2)no1.Cl.Cl.Cl | ng/g | 3910 |
